Reference source: PubChem BioAssay AID179

test system: CEM cells HIV-1 protection, formazan growth assay; assay: NCI AIDS Antiviral Assay
Each record here notes measured EC50.

Example cases with answers are listed next.
>>> result("CC(=O)C1C(=O)C(=O)N(c2ccc(Cl)c(Cl)c2)C1=O (stereo unspecified)")
"> 200 µM"
>>> result("CC(C)(CN1CCCCC1)C(=O)CC(SCCN)c1ccc(Cl)cc1 (stereo unspecified)")
"> 234 µM"
>>> result("CC(C)c1c(O[Si](C(C)C)(C(C)C)C(C)C)cc2c(c1O)CC[C@H]1C(C)(C)CCC[C@]21C")
"> 200 µM"
>>> result("CCOc1cc2c(cc1O)CC[C@@H]1[C@@H]2CC[C@]2(C)C(OS(=O)OC3CC[C@@H]4[C@H]5CCc6cc(O)c(OCC)cc6[C@@H]5CC[C@@]34C)CC[C@@H]12 (stereo partly specified)")
"> 2 µM"
>>> result("S=C(NNc1ccccc1)SSSC(=S)NNc1ccccc1")
"> 200 µM"
>>> result("CC(C)(C)c1ccc(O)c(C(O)c2ccccn2)c1 (stereo unspecified)")
"> 200 µM"

Tell me the measured EC50 of c1ccc([B-]2([C+]3CCCCC3)N3CCCCC3C3CCCCN32)cc1 (stereo unspecified) , please.
> 200 µM

###

Each record here notes measured pEC50.
test system: CEM cells HIV-1 protection, formazan growth assay; experiment: NCI AIDS Antiviral Assay
pEC50: −log10 of the molar value.

>>> result("CCOC(=O)c1ccc(CS(=O)(=O)c2ccc([N+](=O)[O-])cc2)c([N+](=O)[O-])c1")
"< 4.04"
>>> result("[O-][n+]1onc2c1-c1nonc1CC2")
"< 3.70"
>>> result("O=C(O)c1cc(S(=O)(=O)Nc2cc(Cc3cc(NS(=O)(=O)c4ccc(O)c(C(=O)O)c4)c(O)c(C(=O)O)c3)cc(C(=O)O)c2O)ccc1O")
"< 4.00"
>>> result("Cc1ccc(NC(=S)NNC(=O)c2cc(-c3ccccc3)nc3ccccc23)cc1")
"< 3.70"
>>> result("O=C1CSC(/C(=C/c2ccccc2)c2nc3ccccc3[nH]2)=N1")
4.66

Here's the next entry for you.
Tell me the measured pEC50 of Cc1cc2nc3n[nH]c(N)c3nc2cc1C , please.
< 3.70

###

Each record here notes measured pIC50.
tested on: CEM cells HIV-1 protection, formazan growth assay; test: NCI AIDS Antiviral Assay; conditions: measured here: growth of uninfected CEM cells
pIC50: −log10 of the molar value.

Example cases with answers are listed next.
>>> result("O=C1CS(=O)(=O)C(c2ccc(F)cc2)N1N1C(=O)CS(=O)(=O)C1c1ccc(F)cc1 (stereo unspecified)")
"< 3.70"
>>> result("Cc1cc(C)nc(NS(=O)(=O)c2ccc(NC(=O)c3cccc4cc5ccccc5nc34)cc2)n1")
5.42
>>> result("Cn1cc(NC(=O)c2cc(NC(=O)CCCCCCCCCCC(=O)Nc3cc(C(=O)Nc4cc(C(=O)NCCC(=N)N)n(C)c4)n(C)c3)cn2C)cc1C(=O)NCCC(=N)N")
5.11
>>> result("COc1c2c(cc3c1[C@@H]1Oc4c(ccc(O)c4CC=C(C)C)[C@@H]1CO3)OC(C)(C)C=C2")
4.63
>>> result("Cc1ccc(S(=O)(=O)NCCCSCCO)cc1")
5.24

Tell me the measured pIC50 of Nc1c(Cl)cccc1-c1c[nH]c(Cl)c1Cl , please.
4.14

Tell me the measured pIC50 of CCOC(=O)CCC(NC(=O)OCc1ccccc1)C(=O)NC(CCC(=O)OCC)C(=O)NC(CCC(=O)OCC)C(=O)NC(CCC(=O)OCC)C(=O)NC(CCC(=O)OCC)C(=O)OCC (stereo unspecified) , please.
< 4.00

Tell me the measured pIC50 of CN(C)CCNC(=O)c1cc([N+](=O)[O-])cn1C , please.
< 3.70

Tell me the measured pIC50 of COC(=O)C(c1ccccc1)C(SCc1ccccc1)c1ccccc1 (stereo unspecified) , please.
< 3.70

Tell me the measured pIC50 of Cc1ccc(S(=O)(=O)OCC2CC[C@]3(C)C4CCC5(C)C(CCC5[C@H](C)CCC(=O)O)[C@@H]4CC[C@@H]3C2)cc1 (stereo partly specified) , please.
< 5.31

Tell me the measured pIC50 of O=C1NC(=O)C(=Cc2ccc([N+](=O)[O-])cc2)C(=O)N1 , please.
< 3.86

Tell me the measured pIC50 of CC1(C)OCC(COC(=O)NCn2cc(-c3ccccc3)nn2)O1 (stereo unspecified) , please.
< 3.70

Tell me the measured pIC50 of CCCCOCn1c(=O)[nH]c(=O)c2cc(Br)ccc21 , please.
4.03

Tell me the measured pIC50 of C/C(O)=C(\C=N\C(N)=S)C(=O)Nc1ccc(Cl)cc1 , please.
< 4.00

Tell me the measured pIC50 of Nc1nc2sc3ccccc3c(=O)n2n1 , please.
< 4.04

Tell me the measured pIC50 of CCOC(=O)c1nnc2sc(-c3ccccc3)nn12 , please.
3.72

Tell me the measured pIC50 of CC(C)C(=O)CC(c1ccc(Br)cc1)N1N=C(C(C)C)CC1c1ccc(Br)cc1 (stereo unspecified) , please.
< 5.00

Tell me the measured pIC50 of CCC(=O)NC1Cc2cc(C)cc(C)c21 (stereo unspecified) , please.
< 4.05

###

Each record here notes measured EC50.
system: CEM cells HIV-1 protection, formazan growth assay; experiment: NCI AIDS Antiviral Assay

Example cases with answers are listed next.
>>> result("CCOc1snc(C(Cl)(Cl)Cl)c1Cl")
"> 200 µM"
>>> result("CC(=O)N1C(=O)/C(=C\\C(=O)c2ccc(Cl)cc2)c2ccccc21")
"> 100 µM"
>>> result("CN1CCC2c3c([nH]c4ccccc34)C(C)(C)OC2C1 (configuration not stated)")
"> 200 µM"

Form field: EC50 recorded for Cc1cc(CC(=O)NCCO)n(CCO)c(=O)c1 with CEM cells HIV-1 protection, formazan growth assay (enter value)
> 977 µM

Form field: EC50 recorded for CC12CCC(C(S(=O)(=O)Nc3ccccc3)C1=O)C2(C)C (configuration not stated) with CEM cells HIV-1 protection, formazan growth assay (enter value)
> 200 µM

Form field: EC50 recorded for O=C1c2ccoc2C(=O)c2oc(=O)ccc21 with CEM cells HIV-1 protection, formazan growth assay (enter value)
> 102 µM

Form field: EC50 recorded for Cc1ncc([N+](=O)[O-])n1CCNC(=O)CCCCn1ccnc1[N+](=O)[O-] with CEM cells HIV-1 protection, formazan growth assay (enter value)
> 200 µM

Form field: EC50 recorded for C=C1C(=O)O[C@@H]2[C@H]1CC[C@H](C)[C@@H]1CCC(=O)[C@@]21C with CEM cells HIV-1 protection, formazan growth assay (enter value)
> 200 µM

Form field: EC50 recorded for COC(=O)c1cc(/C=C2\Cc3cc4c(cc3C2=O)CCC4)cc2c1CCC2 with CEM cells HIV-1 protection, formazan growth assay (enter value)
> 200 µM

Form field: EC50 recorded for Cn1cc(C2(C)CC(C)(C)c3c2n(C)c2ccccc32)c2ccccc21 (configuration not stated) with CEM cells HIV-1 protection, formazan growth assay (enter value)
> 55 µM

Form field: EC50 recorded for CC1=N/C(=C\c2cccc(Cl)c2)C(=O)O1 with CEM cells HIV-1 protection, formazan growth assay (enter value)
> 85.1 µM

Form field: EC50 recorded for C=C1CC(c2ccc(OCCCN3C(=O)c4ccccc4C3=O)cc2)OC1=O (configuration not stated) with CEM cells HIV-1 protection, formazan growth assay (enter value)
> 20 µM

Form field: EC50 recorded for COc1ccc(N=C2SCC(=O)N2NC(=O)CN2C(=O)c3ccccc3C2=O)cc1 with CEM cells HIV-1 protection, formazan growth assay (enter value)
> 20.4 µM

Form field: EC50 recorded for CC(/C=N/N(C)C1=NCCCN1)=N/N(C)C1=NCCCN1 with CEM cells HIV-1 protection, formazan growth assay (enter value)
> 200 µM

Form field: EC50 recorded for CCOP(=O)(OCC)/C(=C\NC(=S)N=Nc1c(O)[nH]c2ccccc12)C(=O)OC with CEM cells HIV-1 protection, formazan growth assay (enter value)
> 200 µM

###

test system: CEM cells HIV-1 protection, formazan growth assay; experiment: NCI AIDS Antiviral Assay; details: measured here: growth of uninfected CEM cells
Where a SMILES comes first, the peptide text is derived from it. The star is where a group is joined. Cbz = O=C(OCc1ccccc1)*
Each record here notes measured IC50.

>>> result("CCOC(=O)C(CC(=O)OC)NC(=O)C(CC(=O)OC)NC(=O)C(CC(=O)OC)NC(=O)C(CC(=O)OC)NC(=O)OCc1ccccc1 (centres undefined) (Cbz-D(OMe)D(OMe)D(OMe)D(OMe)-OEt; configuration not given here)")
"> 200 µM"
>>> result("COC1=CC(=O)C2C(C1=O)C(c1ccc(Cl)cc1)[C@@H]2C (some centres undefined)")
"28.2 µM"

Tell me the measured IC50 of COc1cccc(-c2nc(-c3cnccn3)n(COCCO)n2)c1 , please.
> 200 µM

Tell me the measured IC50 of O=C(O)C12C3C4(C(=O)O)C1C1(C(=O)O)C2C3(C(=O)O)C41 (centres undefined) , please.
> 200 µM

Tell me the measured IC50 of CCN(CC)CCNc1ccc2ncn3c4c(OC)cccc4c(=O)c1c23 , please.
0.871 µM

Tell me the measured IC50 of O=CN(c1ccccc1)c1c([N+](=O)[O-])cc([N+](=O)[O-])c2c1=NCN=2 , please.
> 79.4 µM

Tell me the measured IC50 of CCOC(=O)[C@@]12C[C@](/C=C/OC)(O[Si](C)(C)C)[C@@]13c1cc(OC)c(OC)cc1CCN3C(=O)C2=O , please.
> 200 µM

Tell me the measured IC50 of NC(Cc1ccc(S(=O)(=O)O)cc1)C(=O)NC(Cc1ccc(S(=O)(=O)O)cc1)C(=O)O (centres undefined) , please.
> 200 µM

Tell me the measured IC50 of CC(=O)OCCN1CCOC(O)(c2cccc(C(F)(F)F)c2)C1 (centres undefined) , please.
117 µM
